Test system: A2780
Experiment: Cytotoxicity against human A2780 cells
Format: functional, cell-based
pIC50: −log10 of the molar value.
quantity_measured: pIC50

INSERT INTO results (item_smiles, recorded_result) VALUES
  ('O=C(/C=C/c1cccnc1)NCCCCCCS(=O)(=O)N(CCN1CCOCC1)OCC1CCCCC1', 9.80),
  ('O=C(NCCCCCCS(=O)(=O)N(OCCN1CCOCC1)C1CCCCC1)NCc1cccnc1', 9.05);

---

Assay: Half life in human
Format: ADME, organism-based
Conditions: in vivo
quantity_measured: half-life (h)

INSERT INTO assay_data (item_smiles, measure_unit, recorded_result) VALUES
  ('N#CN=C(NCCCCCCOc1ccc(Cl)cc1)Nc1ccncc1', 'h', 3);

---

Test: Cytotoxicity against human U87 cells by MTT assay
Assay type: functional, cell-based, U-87MG ATCC
Details: U-87 MG
pEC50: −log10 of the molar value.
Here, each record is paired with measured pEC50 data.
quantity_measured: pEC50

INSERT INTO assay_data (item_smiles, recorded_result) VALUES
  ('Nc1c(-c2ccc3ccccc3n2)c2ccc([N+](=O)[O-])cc2c(=O)n1Cc1ccccc1', 3.49),
  ('O=C1c2cc(S(=O)(=O)O)ccc2-c2ccc(S(=O)(=O)O)cc21', 3.47);

---

Test system: A2780
Assay: Cytotoxicity against human A2780 cells after 72 hrs by SRB assay
Type: functional, cell-based
Settings: A2780, 72 h
pEC50: −log10 of the molar value.
// pEC50 lookup, one value per entry
quantity_measured: pEC50

INSERT INTO measurements (item_smiles, quantity_measured, recorded_result) VALUES
  ('O=C(NCCCCC1CCN(C(=O)c2ccccc2)CC1)c1cc2ccncc2s1', 'pEC50', 8.92),
  ('Cc1ncsc1C(=O)N1CCC(CCCCNC(=O)c2cc3cnccc3[nH]2)CC1', 'pEC50', 9.00),
  ('N#C/N=C(\NCc1ccc(S(=O)(=O)c2cccc(Cl)c2)cc1)Nc1ccncc1', 'pEC50', 8.39),
  ('O=C(/C=C/c1cccnc1)Nc1ccc(S(=O)(=O)c2ccccc2)cc1', 'pEC50', 6.61);

---

Assay: Solubility of the compound in water
Type: physicochemical
quantity_measured: solubility

INSERT INTO results (compound, quantity_measured, recorded_result) VALUES
  ('COCCOCCOCCOCCOC(=O)OC[n+]1ccc(N/C(=N/C#N)NCCCCCCOc2ccc(Cl)cc2)cc1.[Cl-] [TEGLARINAD CHLORIDE]', 'solubility', '≤ 97 mg/mL');

---

Target: Nicotinamide phosphoribosyltransferase (Homo sapiens, UniProt P43490)
Sequence (P43490 whole entry): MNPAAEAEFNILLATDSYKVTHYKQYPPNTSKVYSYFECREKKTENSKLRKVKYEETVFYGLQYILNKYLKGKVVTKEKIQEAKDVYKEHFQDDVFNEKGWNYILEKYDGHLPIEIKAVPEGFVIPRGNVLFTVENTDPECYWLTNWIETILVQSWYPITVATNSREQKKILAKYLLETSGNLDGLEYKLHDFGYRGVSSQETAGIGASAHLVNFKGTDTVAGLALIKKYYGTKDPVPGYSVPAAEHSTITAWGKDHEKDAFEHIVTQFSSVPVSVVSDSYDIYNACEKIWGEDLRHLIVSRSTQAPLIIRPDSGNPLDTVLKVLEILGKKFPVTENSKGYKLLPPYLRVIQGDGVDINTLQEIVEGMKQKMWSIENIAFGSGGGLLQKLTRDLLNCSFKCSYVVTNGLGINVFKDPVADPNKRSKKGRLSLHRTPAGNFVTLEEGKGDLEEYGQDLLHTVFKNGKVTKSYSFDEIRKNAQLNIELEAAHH
Experiment: Inhibition of NAMPT in human U87 cells
Type: cell-based, U-87MG ATCC
quantity_measured: IC50

INSERT INTO measurements (item_smiles, recorded_result) VALUES
  ('Nc1c(-c2ccc3ccccc3n2)c2ccc([N+](=O)[O-])cc2c(=O)n1Cc1ccccc1', '< 5 µM');

---

Test system: WIL2
Experiment: Cytotoxicity against human W1L2 cells
Format: functional, cell-based
quantity_measured: EC50 (nM)

INSERT INTO results (item_smiles, recorded_result) VALUES
  ('C#CCN(Cc1cc2c(=O)n(C)c(CN3CCN(C)CC3)nc2cc1Br)c1ccc(C(=O)NCc2cccnc2)cc1', 0.49);

---

Molecular target: Nicotinamide phosphoribosyltransferase (Homo sapiens, UniProt P43490)
Experiment: Inhibition of NAMPT (unknown origin)
pIC50: −log10 of the molar value.
We begin with a simple list: items and their reported pIC50.
quantity_measured: pIC50

INSERT INTO assay_data (item_smiles, quantity_measured, recorded_result) VALUES
  ('O=C(NCc1cccnc1)Nc1ccc(S(=O)(=O)c2ccccc2OC(F)(F)F)cc1', 'pIC50', 8.92),
  ('C#CCN(Cc1cc2c(=O)n(C)c(CN3CCN(C)CC3)nc2cc1Br)c1ccc(C(=O)NCc2cccnc2)cc1', 'pIC50', 9.64);
